# experimental-details: Solvent scope of N,N′-dialkylaldaramides (1%) or N,N′-dialkylpentaramides (1%): gelation/solubility behaviour in solvents
# Assay type: physicochemical
# Set-up: key: g = gelation; s = soluble; p = precipitates; c = crystallizes; ns = not soluble; v = viscous; g* = unstable gel, precipitates; cg = crystalline gel
# measurement-setup: 1% gelling agent; Dimethylsulfoxide
# Source text: It will be understood that the use of the present gelling agents or thickeners to prepare a gel or to thicken a composition is also encompassed by the invention. As is well known, gelling behavior of compounds or compositions is highly unpredictable. […] Preferably, the gelling phenomenon is thermo reversible. […]
attribute-measured: Gelation/solubility behaviour in Dimethylsulfoxide

Worked examples follow.
molecule	reported-measurement
CCCCCCCCCCCCNC(=O)[C@@H](O)[C@H](O)[C@H](O)[C@@H](O)C(=O)NCCCCCCCCCCCC [Example 14, didodecyl galactaramide]	ns
O=C(NC1CCCCCCCCCCC1)[C@@H](O)[C@@H](O)[C@H](O)[C@H](O)C(=O)NC1CCCCCCCCCCC1 [Example 16, dicyclododecyl D-mannaramide]	p
CC(C)=CCCC(C)CCNC(=O)[C@@H](O)[C@@H](O)[C@H](O)[C@@H](O)C(=O)NCCC(C)CCC=C(C)C (stereo partly drawn) [Example 11, dicitronellyl D-glucaramide]	s
CCCCCCCCCCCCNC(=O)[C@@H](O)[C@@H](O)[C@H](OC)[C@@H](O)C(=O)NCCCCCCCCCCCC [Example 21, 3-O-methyl-didodecyl D-glucaramide]	p

Challenge: Query (molecule): CO[C@@H]([C@H](O)[C@H](O)C(=O)NC1CCCCCCCCCCC1)[C@@H](O)C(=O)NC1CCCCCCCCCCC1 [Example 22, 3-O-methyl-dicyclododecyl D-glucaramide] ; field requested: Gelation/solubility behaviour in Dimethylsulfoxide
Response given: p

Challenge: Try this molecule too: CCCCCCCCCCCCNC(=O)[C@@H](O)[C@@H](O)[C@H](O)[C@H](O)C(=O)NCCCCCCCCCCCC [Example 13, didodecyl D-mannaramide]
Response given: c

Challenge: Try this molecule too: CO[C@@H]([C@H](O)[C@H](O)C(=O)NC1CCCCC1)[C@@H](O)C(=O)NC1CCCCC1 [Example 20, 3-O-methyl-dicyclohexyl D-glucaramide]
Response given: s

Challenge: Try this molecule too: O=C(NC1CCCCCCCCCCC1)[C@@H](O)[C@H](O)[C@H](O)[C@@H](O)C(=O)NC1CCCCCCCCCCC1 [Example 17, dicyclododecyl galactaramide]
Response given: ns

Challenge: Try this molecule too: O=C(NC1CCCCCCCCCCC1)[C@@H](O)[C@@H](O)[C@H](O)[C@@H](O)C(=O)NC1CCCCCCCCCCC1 [Example 15, dicyclododecyl D-glucaramide]
Response given: cg

Challenge: Try this molecule too: CCCCCCCC/C=C\CCCCCCCCNC(=O)[C@@H](O)[C@@H](O)[C@H](O)[C@@H](O)C(=O)NCCCCCCCC/C=C\CCCCCCCC [Example 19, dioleyl D-glucaramide]
Response given: c

Challenge: Try this molecule too: CCCCNC(=O)[C@@H](O)[C@H](O)[C@H](O)[C@@H](O)C(=O)NCCCC [Example 3, dibutyl galactaramide]
Response given: s
